- System: Streptococcus mutans
- assay procedure: Substrate activity at wild-type Streptococcus mutans UdpK expressed in Escherichia coli C43(DE3) in presence of ATP/NADH by PK/LDH coupled assay
measured property: Activity (µmol/mg/min)

>  <smiles input>
C/C(=C/CO)CC/C=C(/C)CC/C=C(/C)CC/C=C(/C)CC/C=C(/C)CC/C=C(/C)CC/C=C(/C)CC/C=C(\C)CC/C=C(\C)CC/C=C(\C)CCCNc1ccccc1C(N)=O

>  <Activity (µmol/mg/min)>
6.9

$$$$
>  <smiles input>
C/C(=C/CO)CC/C=C(/C)CC/C=C(/C)CC/C=C(/C)CC/C=C(/C)CC/C=C(/C)CC/C=C(/C)CC/C=C(\C)CC/C=C(\C)CC/C=C(\C)CCCNCc1ccc(C2(C(F)(F)F)N=N2)cc1

>  <Activity (µmol/mg/min)>
5.1

$$$$
>  <smiles input>
C#CCNCCC/C(C)=C/CC/C(C)=C/CC/C(C)=C/CC/C(C)=C\CC/C(C)=C\CC/C(C)=C\CC/C(C)=C\CC/C(C)=C\CC/C(C)=C\CC/C(C)=C\CO

>  <Activity (µmol/mg/min)>
7.1

$$$$

###

- Tested on: Streptococcus mutans
- assay procedure: Substrate activity at wild-type Streptococcus mutans UdpK expressed in Escherichia coli C43(DE3) in presence of ATP/NADH by PK/LDH coupled assay
measured property: Activity (µmol/mg/min)

>  <compound>
C/C(=C/CO)CC/C=C(/C)CC/C=C(/C)CC/C=C(/C)CC/C=C(/C)CC/C=C(/C)CC/C=C(/C)CC/C=C(\C)CC/C=C(\C)CC/C=C(\C)CCCN=[N+]=[N-]

>  <Activity, µmol/mg/min>
10.8

$$$$

P: C/C(=C/CC/C(C)=C\CC/C(C)=C\CC/C(C)=C\COC1CCCCO1)CC/C=C(/C)CC/C=C(/C)CC/C=C(/C)CC/C=C(\C)CC/C=C(\C)CC/C=C(\C)CCCO (stereo not drawn)
Q: C/C(=C/CO)CC/C=C(/C)CC/C=C(/C)CC/C=C(/C)CC/C=C(/C)CC/C=C(/C)CC/C=C(/C)CC/C=C(\C)CC/C=C(\C)CC/C=C(\C)CCCNc1ccc(N=[N+]=[N-])cc1
Data request: Exercise: compare P and Q ; which one has the greater Activity? Could you answer with the label of the item you picked?
Data returned: Q

###

- System: Streptococcus mutans
- assay procedure: Substrate activity at wild-type Streptococcus mutans UdpK expressed in Escherichia coli C43(DE3) in presence of ATP/NADH by PK/LDH coupled assay
measured property: Activity (µmol/mg/min)

Check out these entries, answers already filled in.
>  <molecule>
C/C(=C/CO)CC/C=C(/C)CC/C=C(/C)CC/C=C(/C)CC/C=C(/C)CC/C=C(/C)CC/C=C(/C)CC/C=C(\C)CC/C=C(\C)CC/C=C(\C)CCCNc1cc2ccc3cccc4ccc(c1)c2c34

>  <endpoint unit>
µmol/mg/min

>  <Activity>
6.2

$$$$
>  <molecule>
C#Cc1cccc(NCCC/C(C)=C/CC/C(C)=C/CC/C(C)=C/CC/C(C)=C\CC/C(C)=C\CC/C(C)=C\CC/C(C)=C\CC/C(C)=C\CC/C(C)=C\CC/C(C)=C\CO)c1

>  <endpoint unit>
µmol/mg/min

>  <Activity>
9

$$$$
>  <molecule>
C/C(=C/CO)CC/C=C(/C)CC/C=C(/C)CC/C=C(/C)CC/C=C(/C)CC/C=C(/C)CC/C=C(/C)CC/C=C(\C)CC/C=C(\C)CC/C=C(\C)CCCNc1ccc([N+](=O)[O-])cc1

>  <endpoint unit>
µmol/mg/min

>  <Activity>
9

$$$$

P: C/C(=C/CO)CC/C=C(/C)CC/C=C(/C)CC/C=C(/C)CC/C=C(/C)CC/C=C(/C)CC/C=C(/C)CC/C=C(\C)CC/C=C(\C)CC/C=C(\C)CCC1OC1(C)C (stereo unspecified)
Q: CC(=O)SCCC/C(C)=C/CC/C(C)=C/CC/C(C)=C/CC/C(C)=C\CC/C(C)=C\CC/C(C)=C\CC/C(C)=C\CC/C(C)=C\CC/C(C)=C\CC/C(C)=C\CO
R: C/C(=C/CO)CC/C=C(/C)CC/C=C(/C)CC/C=C(/C)CC/C=C(/C)CC/C=C(/C)CC/C=C(/C)CC/C=C(\C)CC/C=C(\C)CC/C=C(\C)CCCNC1CC(C)(C)N([O])C(C)(C)C1
Data request: # sort list by recorded Activity, greatest to least Reply format: the labels, ordered as requested.
Data returned: Q, P, R

###

- Test system: Streptococcus mutans
- assay procedure: Substrate activity at 6xHis-tagged Streptococcus mutans UdpK expressed in Escherichia coli BL-21(DE3) assessed as measuring ADP level in presence of ATP/NADH by PK/LDH coupled assay
measured property: Activity (µmol/mg/min)

P: C/C(=C/CO)CC/C=C(/C)CC/C=C(\C)CC/C=C(\C)CC/C=C(\C)CNS(=O)(=O)c1ccc(N=Nc2ccc(N(C)C)cc2)cc1
Q: CC(C)=CCC/C(C)=C/CC/C(C)=C/CC/C(C)=C\CC/C(C)=C\CC/C(C)=C\CC/C(C)=C\CO
R: CCCCCCCCCCCO
Data request: Please rank the 3 items above; order by Activity, the highest number leading. Reply format: the labels, ordered as requested.
Data returned: Q, P, R
(Q: 8.8 µmol/mg/min, P: 4 µmol/mg/min, R: 2.1 µmol/mg/min)

###

- System: Streptococcus mutans
- assay procedure: Substrate activity at 6xHis-tagged Streptococcus mutans UdpK expressed in Escherichia coli BL-21(DE3) assessed as measuring ADP level in presence of ATP/NADH by PK/LDH coupled assay
measured property: Activity (µmol/mg/min)

>  <compound>
CC(C)=CCC/C(C)=C/CC/C(C)=C/CO

>  <endpoint unit>
µmol/mg/min

>  <Activity>
11.5

$$$$
>  <compound>
CC(C)=CCC/C(C)=C\CC/C(C)=C\CO

>  <endpoint unit>
µmol/mg/min

>  <Activity>
21.2

$$$$
>  <compound>
CC(C)=CCC/C(C)=C/CO

>  <endpoint unit>
µmol/mg/min

>  <Activity>
6.2

$$$$
>  <compound>
CC(C)=CCC/C(C)=C/CC/C(C)=C\CO

>  <endpoint unit>
µmol/mg/min

>  <Activity>
5.4

$$$$
>  <compound>
C/C(=C/CO)CC/C=C(\C)CC/C=C(\C)CC/C=C(\C)CC/C=C(\C)CNS(=O)(=O)c1ccc(N=Nc2ccc(N(C)C)cc2)cc1

>  <endpoint unit>
µmol/mg/min

>  <Activity>
5.9

$$$$

a: C/C(=C/CO)CC/C=C(/C)CC/C=C(/C)CC/C=C(\C)CC/C=C(\C)CNS(=O)(=O)c1ccc(N=Nc2ccc(N(C)C)cc2)cc1
b: CCCCCCCCCCCCCCCCCCCCO
c: CCCCCCCCCCCCCCCCO
Data request: # sort list by recorded Activity, greatest to least Reply format: the labels, ordered as requested.
Data returned: a, c, b
(a: 4.1 µmol/mg/min, c: 1.9 µmol/mg/min, b: 1.3 µmol/mg/min)

A: CC(C)=CCC/C(C)=C/CC/C(C)=C/CC/C(C)=C/CC/C(C)=C/CC/C(C)=C/CC/C(C)=C/CC/C(C)=C/CC/C(C)=C/CO
B: CC(C)=CCC/C(C)=C/CC/C(C)=C/CC/C(C)=C/CO
C: C/C(=C\CO)CC/C=C(\C)CC/C=C(\C)CC/C=C(\C)CC/C=C(\C)CNS(=O)(=O)c1ccc(N=Nc2ccc(N(C)C)cc2)cc1
Data request: # sort list by recorded Activity, greatest to least Reply format: the labels, ordered as requested.
Data returned: B, A, C
(B: 9.3 µmol/mg/min, A: 4.9 µmol/mg/min, C: 3.3 µmol/mg/min)

P: CC(C)=CCC/C(C)=C/CC/C(C)=C/CC/C(C)=C\CC/C(C)=C\CC/C(C)=C\CC/C(C)=C\CC/C(C)=C\CO
Q: C/C(=C\CO)CCCC(C)CCCC(C)CCCC(C)C (stereo not given)
Data request: Exercise: compare P and Q ; which one has the greater Activity? Could you answer with the label of the item you picked?
Data returned: Q
(Q: 5.6 µmol/mg/min, P: 3.8 µmol/mg/min)

Where these numbers come from: ChEMBL document CHEMBL5104096
